Where do these numbers come from? They come from patent US11649246B2.

assay: Solubility of bis-hydrochloride Form I by HPLC test and observation test; format: physicochemical; conditions: organic solvent or mixture, thermodynamic from solid, Ethyl acetate, read-out: Solubility
test_readout: solubility (µg/mL)
Kindly provide the numeric value in µg/mL only, without the unit symbol.

In: For Cc1ccc2c(Nc3cccc(Cl)c3F)nccc2c1NC(=O)c1csc2c(N)ncnc12 [Example 3] , what is its reported solubility?
Out: 2.8

###

assay: Solubility of bis-hydrochloride Form I by HPLC test and observation test; format: physicochemical; conditions: aqueous buffer, thermodynamic from solid, pH 6.0 buffer, read-out: Solubility
test_readout: solubility (µg/mL)
Write it as a number; the unit µg/mL goes unstated.

In: Could you share which solubility value was measured for `Cc1ccc2c(Nc3cccc(Cl)c3F)nccc2c1NC(=O)c1csc2c(N)ncnc12` ?
Out: 0.1

###

assay: Solubility of bis-hydrochloride Form I by HPLC test and observation test; type: physicochemical; conditions: organic solvent or mixture, thermodynamic from solid, Ethyl ether, read-out: Solubility
test_readout: solubility (µg/mL)
Your answer is read as µg/mL, so omit the unit and give the number.

In: May I ask what solubility has been recorded for `Cc1ccc2c(Nc3cccc(Cl)c3F)nccc2c1NC(=O)c1csc2c(N)ncnc12` ?
Out: 1.9

###

assay: Partition / distribution coefficient octanol-water (Sirius T3); type: physicochemical; conditions: octanol/water, pH 9
test_readout: logD
Returns: the value as a bare number; no unit string appended.

In: Consider the molecule shown here: `Cc1ccc2c(Nc3cccc(Cl)c3F)nccc2c1NC(=O)c1csc2c(N)ncnc12` What is its recorded logD?
Out: 5.23

###

assay: Partition / distribution coefficient octanol-water (Sirius T3); format: physicochemical; details: octanol/water, pH 7.4
Where a name gives a salt, the structure may show the parent alone.
test_readout: logD

In: Quick one: logD for Cc1ccc2c(Nc3cccc(Cl)c3F)nccc2c1NC(=O)c1csc2c(N)ncnc12 [Formula (I) bis-hydrochloride salt] ?
Out: 5.24

###

experiment: Solubility of bis-hydrochloride Form I by HPLC test and observation test; assay type: physicochemical; settings: organic solvent or mixture, thermodynamic from solid, n-Hexane, read-out: Solubility
test_readout: solubility (µg/mL)
Use µg/mL as the unit, but write only the number.

In: Could you tell me which solubility is on file for `Cc1ccc2c(Nc3cccc(Cl)c3F)nccc2c1NC(=O)c1csc2c(N)ncnc12` ?
Out: 0.04

###

test: Solubility of bis-hydrochloride Form I by HPLC test and observation test; type: physicochemical; conditions: organic solvent or mixture, thermodynamic from solid, Methanol, read-out: Solubility
test_readout: solubility (mg/mL)
Record the value in mg/mL, omitting the unit from your answer.

In: I'd like to know its solubility. The compound in question is `Cc1ccc2c(Nc3cccc(Cl)c3F)nccc2c1NC(=O)c1csc2c(N)ncnc12`
Out: 17.4

###

test: Partition / distribution coefficient octanol-water (Sirius T3); type: physicochemical; details: octanol/water, pH 10
test_readout: logD
# print the numeric value only

In: Request the reported logD associated with `Cc1ccc2c(Nc3cccc(Cl)c3F)nccc2c1NC(=O)c1csc2c(N)ncnc12`
Out: 5.11

###

experiment: Dissociation constant (pKa), GLpKa method, Sirius T3; type: physicochemical; details: MDM co-solvent solution (ISA Water/MeOH/ACN/p-Dioxane), 43% MDM solution, column 1; read-out: pKa (third value)
test_readout: pKa
Answer with a number only.

In: Please give the measured pKa for this compound: Cc1ccc2c(Nc3cccc(Cl)c3F)nccc2c1NC(=O)c1csc2c(N)ncnc12 [Example 3]
Out: 10.4

###

test: Hygroscopicity / water content at 25° C. and 75% RH; format: physicochemical; conditions: salt as prepared, before humidity exposure
Counter-ions that a name gives are not always drawn.
For each of the molecules below, state its Water Content (%).
Kindly answer with a numeric value in %, unit omitted.

In: Any idea what Water Content (%) was measured for Cc1ccc2c(Nc3cccc(Cl)c3F)nccc2c1NC(=O)c1csc2c(N)ncnc12 [MsOH] ?
Out: 2.1

In: Item under review: Cc1ccc2c(Nc3cccc(Cl)c3F)nccc2c1NC(=O)c1csc2c(N)ncnc12 [HBr] . Reported Water Content (%)?
Out: 2.9

In: I have this molecule here, Cc1ccc2c(Nc3cccc(Cl)c3F)nccc2c1NC(=O)c1csc2c(N)ncnc12 [Formula (I) bis-hydrochloride salt] , and I need its recorded Water Content (%).
Out: 6.2

In: Requested read-out: Water Content (%). Entry: Cc1ccc2c(Nc3cccc(Cl)c3F)nccc2c1NC(=O)c1csc2c(N)ncnc12 [BsOH]
Out: 0.9

In: Fill blank: measured Water Content (%) of the molecule Cc1ccc2c(Nc3cccc(Cl)c3F)nccc2c1NC(=O)c1csc2c(N)ncnc12 [Formula (I) bis-hydrogensulfate salt] is ____.
Out: 2.6

###

test: Dissociation constant (pKa), GLpKa method, Sirius T3; type: physicochemical; conditions: MDM co-solvent solution (ISA Water/MeOH/ACN/p-Dioxane), 43% MDM solution, column 3; read-out: pKa (second value)
test_readout: pKa
Returns: the value as a bare number; no unit string appended.

In: // pKa lookup, key: `Cc1ccc2c(Nc3cccc(Cl)c3F)nccc2c1NC(=O)c1csc2c(N)ncnc12`
Out: 4.69

###

test: Solubility of bis-hydrochloride Form I by HPLC test and observation test; type: physicochemical; conditions: aqueous buffer, thermodynamic from solid, pH 6.8 buffer, read-out: Solubility
test_readout: solubility (µg/mL)
Report the figure in µg/mL without appending any unit label.

In: Reported solubility, molecule `Cc1ccc2c(Nc3cccc(Cl)c3F)nccc2c1NC(=O)c1csc2c(N)ncnc12` : ____
Out: 0.09

###

assay: Dissociation constant (pKa), GLpKa method, Sirius T3; format: physicochemical; settings: MDM co-solvent solution (ISA Water/MeOH/ACN/p-Dioxane), 43% MDM solution, column 2; read-out: pKa (first value)
test_readout: pKa
// response body must contain only the number

In: Report pKa for `Cc1ccc2c(Nc3cccc(Cl)c3F)nccc2c1NC(=O)c1csc2c(N)ncnc12` please.
Out: 3.88

###

experiment: Partition / distribution coefficient octanol-water (Sirius T3); format: physicochemical; settings: octanol/water (octanol/150 mM KCl); neutral state at pH 11 or higher
Counter-ions that a name gives are not always drawn.
test_readout: logP
Number, no unit, nothing else.

In: So what's the measured logP for this one? Cc1ccc2c(Nc3cccc(Cl)c3F)nccc2c1NC(=O)c1csc2c(N)ncnc12 [Formula (I) bis-hydrochloride salt]
Out: 4.33

###

assay: Partition / distribution coefficient octanol-water (Sirius T3); format: physicochemical; conditions: octanol/water, pH 6.5
test_readout: logD
Please state the value as a number alone, without comment.

In: Quick one: logD for `Cc1ccc2c(Nc3cccc(Cl)c3F)nccc2c1NC(=O)c1csc2c(N)ncnc12` ?
Out: 5.24

###

assay: Partition / distribution coefficient octanol-water (Sirius T3); type: physicochemical; conditions: octanol/water, pH 5
test_readout: logD
Write the number on its own, no unit after it.

In: // query logD value for entry `Cc1ccc2c(Nc3cccc(Cl)c3F)nccc2c1NC(=O)c1csc2c(N)ncnc12`
Out: 5.06

###

experiment: Partition / distribution coefficient octanol-water (Sirius T3); type: physicochemical; conditions: octanol/water, pH 7
test_readout: logD
Give a plain numeric answer without units written out.

In: // logD lookup, key: Cc1ccc2c(Nc3cccc(Cl)c3F)nccc2c1NC(=O)c1csc2c(N)ncnc12 [Example 3]
Out: 5.24

###

assay: Partition / distribution coefficient octanol-water (Sirius T3); type: physicochemical; settings: octanol/water, pH 1
test_readout: logD
Please give only the number in your answer, with no unit.

In: For the molecule Cc1ccc2c(Nc3cccc(Cl)c3F)nccc2c1NC(=O)c1csc2c(N)ncnc12 [Example 3] , what logD is on record?
Out: 0.02

###

assay: Solubility of bis-hydrochloride Form I by HPLC test and observation test; format: physicochemical; details: organic solvent or mixture, thermodynamic from solid, Ethanol, read-out: Solubility
test_readout: solubility (µg/mL)
Enter your answer as a number in µg/mL; do not include the unit.

In: Need solubility of `Cc1ccc2c(Nc3cccc(Cl)c3F)nccc2c1NC(=O)c1csc2c(N)ncnc12` , thanks.
Out: 800

###

assay: Solubility of bis-hydrochloride Form I by HPLC test and observation test; assay type: physicochemical; conditions: aqueous buffer, thermodynamic from solid, pH 8.0 buffer, read-out: Solubility
test_readout: solubility (µg/mL)
Report only the number, with the unit µg/mL understood.

In: So what's the measured solubility for this one? `Cc1ccc2c(Nc3cccc(Cl)c3F)nccc2c1NC(=O)c1csc2c(N)ncnc12`
Out: 0.05

###

experiment: Partition / distribution coefficient octanol-water (Sirius T3); type: physicochemical; settings: octanol/water, pH 12
test_readout: logD
Simply state the number, no unit and no words.

In: Given the entry `Cc1ccc2c(Nc3cccc(Cl)c3F)nccc2c1NC(=O)c1csc2c(N)ncnc12` , report its measured logD.
Out: 4.4

###

test: Solubility of bis-hydrochloride Form I by HPLC test and observation test; type: physicochemical; conditions: aqueous buffer, thermodynamic from solid, pH 3.0 buffer, read-out: Solubility
test_readout: solubility
// return the numeric value with its unit appended

In: Would you mind telling me what solubility value was observed for `Cc1ccc2c(Nc3cccc(Cl)c3F)nccc2c1NC(=O)c1csc2c(N)ncnc12` ?
Out: 20 µg/mL
